test system: HT29 colon; experiment: NCI tumour cell line growth inhibition, 48 h
Parameter: TGI

>>> data_value("COc1cc(C2c3c(ccc4ccccc34)C(=O)C3CCC(=O)N32)cc(OC)c1O (stereo not drawn)")
"> 25 µM"
>>> data_value("CCC[CH2][Pb]([Cl])([CH2]CCC)[CH2]CCC")
"0.0645 µM"
>>> data_value("CCOC(=O)C(C(O)c1ccc([N+](=O)[O-])cc1)P(=O)(OCC)OCC (stereo not drawn)")
"> 100 µM"
>>> data_value("C#CC1NC(=O)C1N(CC)CC (stereo not drawn)")
"> 100 µM"
>>> data_value("CC1C2CC=CC(=O)[C@@]2(C)CCC12OCCO2 (stereo partly drawn)")
"> 100 µM"
>>> data_value("CC1(C)N=C(N)N=C(N)N1c1cccc(Br)c1")
"> 100 µM"
>>> data_value("Nc1ccc(Sc2c3ccccc3nc3ccccc23)cc1")
"32 µM"
>>> data_value("CCOC(=O)C1(Br)S(=O)(=O)OCCOS1(=O)=O")
"> 100 µM"
>>> data_value("CC1CN=C(Nc2ccc(F)c(Cl)c2)S1 (stereo not drawn)")
"> 100 µM"
>>> data_value("CCCCCC[C@H](C)NC(=O)c1ccc(Nc2nc3ccccc3c3occc23)cc1")
"> 100 µM"
>>> data_value("O=c1c([OH2+])c(-c2ccc(O)cc2[O-])oc2cc(O)cc([O-])c12.O=c1c([OH2+])c(-c2ccc(O)cc2[O-])oc2cc(O)cc([O-])c12.[Ti+4]")
"> 100 µM"
>>> data_value("O=C(/C=C/OC(=O)c1cccc(Cl)c1)c1ccc(Cl)cc1")
"> 100 µM"
>>> data_value("COc1cccc(NC(=O)C(=O)C2C=CCS2(=O)=O)c1 (stereo not drawn)")
"> 100 µM"
>>> data_value("Cc1ccc(S(=O)(=O)N2CCc3ccc(O)c4c3C2Cc2ccc3c(c2-4)OCO3)cc1 (stereo not drawn)")
"7.25 µM"
>>> data_value("COc1ccc2c(c1OC(C)=O)C1=CC(=O)CCC13CCNC3C2 (stereo not drawn)")
"> 100 µM"
>>> data_value("Cc1nccc2c3ccc(OCc4cn(-c5ccc(Cl)cc5)nn4)cc3n(CC(C)C)c12")
"10.4 µM"
>>> data_value("CN(C)c1ccc(N=C2C=CC(=O)c3ccccc32)cc1")
"12.2 µM"
>>> data_value("COc1cc(/C=N/NC2=NCCCCN2)ccc1O")
"> 100 µM"

###

As shown below, each of these compounds has a reported TGI value.
tested on: SNB-19 CNS; test: NCI tumour cell line growth inhibition, 48 h
Parameter: TGI

>>> data_value("O=c1c2c(c1=O)-c1ccccc1CN2")
"> 100 µM"
>>> data_value("COCc1c(-c2ccc(NC(=O)Nc3cc(C(F)(F)F)ccc3F)c(F)c2)c2c(N)ncnn2c1CN1CCOCC1")
"> 10 µM"
>>> data_value("O=c1c([OH2+])c(-c2ccc(O)cc2[O-])oc2cc(O)cc([O-])c12.O=c1c([OH2+])c(-c2ccc(O)cc2[O-])oc2cc(O)cc([O-])c12.[Ti+4]")
"> 100 µM"
>>> data_value("Cc1csc(NNC(=O)Nc2ccccc2)n1")
"> 100 µM"
>>> data_value("Cn1cnc([N+](=O)[O-])c1Sc1nccc(=O)[nH]1")
"> 100 µM"

###

# GI50 listing for each entry below
test system: COLO 205 colon; assay: NCI tumour cell line growth inhibition, 48 h
Parameter: GI50

>>> data_value("COc1ccc(/C=C2\\c3cc(OC)c(OC)c(OC)c3CC[C@@H]2O)cc1F")
"1030 nM"
>>> data_value("COc1cc(/C=C/C(=O)c2c(C)nc3ccccc3c2C)ccc1OCCCN1CCN(C(=O)c2ccco2)CC1")
"11000 nM"
>>> data_value("COCc1c(-c2ccc(NC(=O)Nc3cc(C(F)(F)F)ccc3F)c(F)c2)c2c(N)ncnn2c1CN1CCOCC1")
"1050 nM"

###

tested on: RXF 393 renal; assay: NCI tumour cell line growth inhibition, 48 h
// TGI lookup, one value per entry
Parameter: TGI

>>> data_value("COC(=O)C(/C(=N\\NC(N)=S)C(=O)Nc1ccccc1[N+](=O)[O-])c1cnc2ccccc2n1 (stereo not drawn)")
"> 100 µM"
>>> data_value("CCOCc1cc(=O)c2c(OC)cc3c(c2o1)CCC(C)(C)O3")
"> 100 µM"
>>> data_value("Cn1c2ccccc2c2c(=O)n(CCCC(=O)OC(=NC3CCCCC3)NC3CCCCC3)c3c(-c4ccccc4)nnn3c21")
"> 100 µM"
>>> data_value("CCCN(CCC)C1=Nc2ccccc2-n2cnnc2C1")
"> 100 µM"
>>> data_value("FC(F)(F)c1cc(Nc2ccc3cc(OCCCN4CCOCC4)ccc3n2)ccc1Cl")
"3.22 µM"
>>> data_value("C=C1C(=O)O[C@H]2[C@H]1CC/C(COC(=O)NCCCCCCCCNC(=O)OC/C1=C/CC[C@@]3(C)O[C@H]3[C@H]3OC(=O)C(=C)[C@@H]3CC1)=C\\CC[C@@]1(C)O[C@@H]21")
"0.322 µM"
>>> data_value("CC(O)[C@@]1(c2ccccc2)CC2(CCN(C)CC2)O[C@H]1C (stereo partly drawn)")
"> 100 µM"
>>> data_value("N#CC1C(=O)NC(c2ccccc2[N+](=O)[O-])c2sc3c(F)cccc3c21 (stereo not drawn)")
"56.9 µM"
>>> data_value("CN(C)c1ccc(/C=C/c2cc(-c3ccccc3)[n+](C)n2-c2ccccc2)cc1")
"4.18 µM"
>>> data_value("COc1ccc(/C(=N\\Nc2ccccn2)c2ccccn2)cc1")
"36.6 µM"
>>> data_value("Cc1c(F)c(NC(=O)CN(C)C)c2c(=O)cc(-c3ccc(NC(=O)CN(C)C)c(F)c3)oc2c1F")
"25.6 µM"
>>> data_value("COc1cc(/C=N/NC2=NCCCCN2)ccc1O")
"> 100 µM"
>>> data_value("CN1CCN(Cc2cc(NC(=O)c3cccc(C#Cc4cccc5[nH]nc(N)c45)c3)cc(C(F)(F)F)c2)CC1")
"2.83 µM"
>>> data_value("COc1c2c(cc3c1C(=O)Cc1ccc4c(c1CN(C)CC3)OCO4)OCO2")
"> 100 µM"
>>> data_value("CN(C(=O)c1ccc(OCCCC(=O)O)c(Cl)c1Cl)C1CCCC1")
"> 100 µM"
>>> data_value("O=C1/C(=C/c2ccc(Cl)cc2)CSC/C1=C\\c1ccc(Cl)cc1")
"3.36 µM"
>>> data_value("N#Cc1c(N2CCN(c3ccc([N+](=O)[O-])cc3)CC2)[n+](=O)c2ccccc2n1[O-]")
"> 100 µM"
>>> data_value("COc1cnc2c(c1)C(=O)c1c-2n(CCCN2CCNCC2)c(=O)c2cc([N+](=O)[O-])ccc12")
"1.94 µM"
>>> data_value("COC[C@H](C)N=CN1CCc2ccccc2C1(Cc1ccccc1)Cc1ccccc1")
"32.7 µM"
>>> data_value("C/C(Cc1ccc2c(c1)OCO2)=N\\NC(=O)C(C)Sc1nnc(SC(C)C(=O)N/N=C(\\C)Cc2ccc3c(c2)OCO3)s1 (stereo not drawn)")
"> 100 µM"
>>> data_value("C=CCc1c(O)c(C(=O)/C=C/c2ccccc2)c(OC)c2ccoc12")
"5.62 µM"
>>> data_value("CCCN1CCC(c2ccc(Nc3nc(Nc4cc(F)ccc4C(N)=O)c4cc[nH]c4n3)c(OC)c2)CC1")
"6.31 µM"
>>> data_value("CCCCN(CCCC)CCCn1cnc2ncccc2c1=O")
"> 100 µM"
>>> data_value("CCOC(=O)C(=O)NC12CC3CC(CC(C3)C1)C2")
"> 100 µM"
>>> data_value("CC1CN=C(Nc2ccc(F)c(Cl)c2)S1 (stereo not drawn)")
"> 100 µM"
>>> data_value("C=CCCCCCCCCC(=O)O")
"207 µM"
>>> data_value("O=C(O[C@H]1CCN2C[C@H]3C[C@H](CN4C(=O)CCC[C@H]34)[C@@H]2C1)c1ccc(O)cc1")
"> 100 µM"
>>> data_value("CCOC(=O)C(OP(=O)(OCC)OCC)C(F)(F)F (stereo not drawn)")
"> 100 µM"
>>> data_value("CCn1ccc(NS(=O)(=O)c2ccc(N)cc2)nc1=O")
"> 100 µM"
>>> data_value("COc1cc(/C=C2/C(=O)N(C(=O)OCc3ccccc3)C(Cc3cc(OC)c(OC)c(C)c3OC)C(=O)N2Cc2ccccc2)c(OC)c(C)c1OC (stereo not drawn)")
"> 100 µM"
>>> data_value("CCCCCCCCOC(=O)c1cc([N+](=O)[O-])c(Sc2ncnc3nc[nH]c23)c([N+](=O)[O-])c1")
"> 47.6 µM"
>>> data_value("COC(=O)C1=NN2c3ccccc3CN([C@@H](C)c3ccccc3)C(=O)[C@@H]2[C@H]1c1ccccc1")
"> 100 µM"
>>> data_value("O=Nc1c(O)cc(Nc2cccnc2)c2ccccc12")
"> 100 µM"
>>> data_value("O=c1c2cc(I)ccc2nc(-c2cccs2)n1/N=C/c1ccccc1")
"> 100 µM"
>>> data_value("CN(CCCn1ccnc1[N+](=O)[O-])CCCn1ccnc1[N+](=O)[O-]")
"> 100 µM"
>>> data_value("COC1=CC(=O)c2nc(Cl)ccc2C1=O")
"2.97 µM"
>>> data_value("COCCn1cc(-c2csc(-c3c[nH]c4ccc(Br)cc34)n2)c2cccnc21")
"11.2 µM"
>>> data_value("COc1cccc(/C=C\\c2ccc(O)cc2)c1")
"> 78.8 µM"
